# targetDesc: PARP7 (Homo sapiens (Human), UniProt Q7Z3E1)
# Sequence (Q7Z3E1 whole entry): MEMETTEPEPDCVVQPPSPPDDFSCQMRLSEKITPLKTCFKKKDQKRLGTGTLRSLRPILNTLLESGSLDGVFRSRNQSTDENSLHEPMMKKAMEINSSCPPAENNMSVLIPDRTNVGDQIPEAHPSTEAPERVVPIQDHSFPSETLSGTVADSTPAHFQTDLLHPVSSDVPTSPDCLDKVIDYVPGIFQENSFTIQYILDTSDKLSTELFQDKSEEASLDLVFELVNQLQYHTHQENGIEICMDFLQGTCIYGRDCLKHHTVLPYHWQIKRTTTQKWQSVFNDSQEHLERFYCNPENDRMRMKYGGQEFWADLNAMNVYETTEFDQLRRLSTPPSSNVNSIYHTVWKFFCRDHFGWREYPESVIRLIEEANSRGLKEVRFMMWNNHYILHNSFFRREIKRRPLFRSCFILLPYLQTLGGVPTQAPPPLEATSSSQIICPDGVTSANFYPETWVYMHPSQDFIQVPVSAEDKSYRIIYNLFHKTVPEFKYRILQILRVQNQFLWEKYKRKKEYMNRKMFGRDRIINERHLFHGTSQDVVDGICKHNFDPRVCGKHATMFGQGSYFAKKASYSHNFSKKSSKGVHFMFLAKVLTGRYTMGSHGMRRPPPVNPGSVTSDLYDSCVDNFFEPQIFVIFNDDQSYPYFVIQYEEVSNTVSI
# protocolText: Enzymatic assay for inhibition of PARP7: TR-FRET displacement of biotinylated Probe A from the TIPARP active site
# assaySetup: Table A-1
pIC50: −log10 of the molar value.
The entries below are paired with their reported pIC50.

Sample answers from the record:
[
  {
    "compound": "COc1ccc2c(c1)CN(c1cn[nH]c(=O)c1C(F)(F)F)C2 [Example 174]",
    "pIC50": "> 7.00"
  },
  {
    "compound": "N#Cc1cnc(N2CCN(C(=O)c3cncc(OC[C@@H]4CCCN4c4cn[nH]c(=O)c4C(F)(F)F)c3)CC2)cn1 [Example 444]",
    "pIC50": "> 7.00"
  }
]

Now consider a different compound.
### Prompt Tell me the measured pIC50 of O=C(c1cccc(OC[C@@H]2CCCN2c2cn[nH]c(=O)c2C(F)(F)F)c1)N1CCN(c2ncccn2)CC1 [Example 445] , please.
### Response > 7.00
